These measurements were taken from patent US12643903B2.

Give log10 of DC50 for every item shown.
molecular target: EGFR LTC (Homo sapiens, UniProt P00533, C797S/L858R/T790M); construct: expressed in transfected cells; host or cells: BaF3; experiment: Cell Degradation 3: EGFR degradation in BaF3 cells (LTC), HTRF assay; format: cell-based; details: 16 h treatment, EGFR degradation by HTRF
Sequence (P00533 25-1210 T790M/C797S/L858R): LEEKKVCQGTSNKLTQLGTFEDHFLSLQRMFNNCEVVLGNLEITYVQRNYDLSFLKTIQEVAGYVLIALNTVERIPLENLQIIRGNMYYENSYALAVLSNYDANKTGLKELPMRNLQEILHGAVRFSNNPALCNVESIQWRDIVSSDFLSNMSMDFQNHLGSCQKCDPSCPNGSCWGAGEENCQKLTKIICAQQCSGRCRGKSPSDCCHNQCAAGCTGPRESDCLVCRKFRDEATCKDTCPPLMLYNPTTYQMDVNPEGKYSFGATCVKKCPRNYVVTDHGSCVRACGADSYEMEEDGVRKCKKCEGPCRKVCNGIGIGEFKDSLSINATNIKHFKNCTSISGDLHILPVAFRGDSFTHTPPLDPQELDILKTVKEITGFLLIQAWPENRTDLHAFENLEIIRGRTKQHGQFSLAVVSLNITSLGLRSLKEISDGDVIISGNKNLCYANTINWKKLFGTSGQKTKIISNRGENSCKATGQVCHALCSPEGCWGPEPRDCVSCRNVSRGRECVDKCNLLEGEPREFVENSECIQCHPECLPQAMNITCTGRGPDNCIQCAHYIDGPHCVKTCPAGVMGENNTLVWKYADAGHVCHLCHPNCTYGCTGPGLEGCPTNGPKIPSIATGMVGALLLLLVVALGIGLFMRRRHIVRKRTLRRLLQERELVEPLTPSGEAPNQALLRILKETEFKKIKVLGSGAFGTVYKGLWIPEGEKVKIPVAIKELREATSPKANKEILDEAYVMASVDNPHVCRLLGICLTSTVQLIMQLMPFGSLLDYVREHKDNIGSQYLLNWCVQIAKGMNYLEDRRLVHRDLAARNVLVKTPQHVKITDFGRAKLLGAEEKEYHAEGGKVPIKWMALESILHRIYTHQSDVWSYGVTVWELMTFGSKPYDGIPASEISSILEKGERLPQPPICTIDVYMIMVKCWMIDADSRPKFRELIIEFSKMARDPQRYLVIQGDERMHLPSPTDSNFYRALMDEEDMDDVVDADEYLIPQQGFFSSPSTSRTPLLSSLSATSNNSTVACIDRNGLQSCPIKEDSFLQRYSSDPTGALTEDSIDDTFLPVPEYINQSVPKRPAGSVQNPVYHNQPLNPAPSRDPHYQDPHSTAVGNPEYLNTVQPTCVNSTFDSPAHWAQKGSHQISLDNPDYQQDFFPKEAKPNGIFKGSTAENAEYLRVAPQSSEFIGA
Hello, just confirming the data are log10 of DC50 with units of nM.

Completed entries (count: 2):
compound	log10 of DC50
COc1cc(N2CCN(CCC3CCN(c4ccc(C5CCC(=O)NC5=O)cc4)CC3)CC2)ccc1Nc1ncc(Cl)c(Nc2cccc3c2N(S(C)(=O)=O)CC3)n1 (stereo not drawn) [Example 56]	2.37
CS(=O)(=O)N1CCc2cccc(Nc3nc(Nc4ccc(N5CCC(N6CCN(CCc7cc(F)c(C8CCC(=O)NC8=O)c(F)c7)CC6)CC5)c(F)c4)nc4[nH]ccc34)c21 (stereo not drawn) [Example 68]	0.64

Hello, I would appreciate it if you could give log10 of DC50 for each entry below.
1. CS(=O)(=O)N1CCc2cccc(Nc3nc(Nc4ccc(N5CCC(N6CCN(CC7CN(c8ccc9c(c8)C(=O)N(C8CCC(=O)NC8=O)C9=O)C7)CC6)CC5)c(F)c4)ncc3Cl)c21 (stereo not drawn) [Example 76]
2. CCc1cc(Nc2ncc(Br)c(Nc3ccc(N(C)C)c4c3N(S(C)(=O)=O)CC4)n2)c(OC)cc1N1CCC(N2CCN(CCc3cc(F)c([C@H]4CCC(=O)NC4=O)c(F)c3)CC2)CC1 [Example 200]
3. COc1cc(N2CCC(N3CCN(CCC4CCN(c5ccc(C6CCC(=O)NC6=O)c(F)c5)CC4)CC3)CC2)ccc1Nc1ncc(Cl)c(Nc2cccc3c2N(S(C)(=O)=O)CC3)n1 (stereo not drawn) [Example 36]
4. COc1cc(N2CCC(N3CCN(C(=O)[C@@H]4CCN(c5ccc6c(c5)C(=O)N(C5CCC(=O)NC5=O)C6=O)C4)CC3)CC2)ccc1Nc1ncc(Cl)c(Nc2cccc3c2N(S(C)(=O)=O)CC3)n1 (stereo partly drawn) [Example 88]

Found:
1: 0.90; 2: 2.71; 3: 1.63; 4: 1.64

###

molecular target: EGFR (Homo sapiens, UniProt P00533, DEL746-750); construct: endogenous in cells; host or cells: HCC827; test: Cell Degradation 2: EGFR degradation in HCC827 cells, HTRF assay; type: cell-based; settings: 16 h treatment, EGFR degradation by HTRF
Sequence (P00533 with tags, fused parts or gaps DEL746-750): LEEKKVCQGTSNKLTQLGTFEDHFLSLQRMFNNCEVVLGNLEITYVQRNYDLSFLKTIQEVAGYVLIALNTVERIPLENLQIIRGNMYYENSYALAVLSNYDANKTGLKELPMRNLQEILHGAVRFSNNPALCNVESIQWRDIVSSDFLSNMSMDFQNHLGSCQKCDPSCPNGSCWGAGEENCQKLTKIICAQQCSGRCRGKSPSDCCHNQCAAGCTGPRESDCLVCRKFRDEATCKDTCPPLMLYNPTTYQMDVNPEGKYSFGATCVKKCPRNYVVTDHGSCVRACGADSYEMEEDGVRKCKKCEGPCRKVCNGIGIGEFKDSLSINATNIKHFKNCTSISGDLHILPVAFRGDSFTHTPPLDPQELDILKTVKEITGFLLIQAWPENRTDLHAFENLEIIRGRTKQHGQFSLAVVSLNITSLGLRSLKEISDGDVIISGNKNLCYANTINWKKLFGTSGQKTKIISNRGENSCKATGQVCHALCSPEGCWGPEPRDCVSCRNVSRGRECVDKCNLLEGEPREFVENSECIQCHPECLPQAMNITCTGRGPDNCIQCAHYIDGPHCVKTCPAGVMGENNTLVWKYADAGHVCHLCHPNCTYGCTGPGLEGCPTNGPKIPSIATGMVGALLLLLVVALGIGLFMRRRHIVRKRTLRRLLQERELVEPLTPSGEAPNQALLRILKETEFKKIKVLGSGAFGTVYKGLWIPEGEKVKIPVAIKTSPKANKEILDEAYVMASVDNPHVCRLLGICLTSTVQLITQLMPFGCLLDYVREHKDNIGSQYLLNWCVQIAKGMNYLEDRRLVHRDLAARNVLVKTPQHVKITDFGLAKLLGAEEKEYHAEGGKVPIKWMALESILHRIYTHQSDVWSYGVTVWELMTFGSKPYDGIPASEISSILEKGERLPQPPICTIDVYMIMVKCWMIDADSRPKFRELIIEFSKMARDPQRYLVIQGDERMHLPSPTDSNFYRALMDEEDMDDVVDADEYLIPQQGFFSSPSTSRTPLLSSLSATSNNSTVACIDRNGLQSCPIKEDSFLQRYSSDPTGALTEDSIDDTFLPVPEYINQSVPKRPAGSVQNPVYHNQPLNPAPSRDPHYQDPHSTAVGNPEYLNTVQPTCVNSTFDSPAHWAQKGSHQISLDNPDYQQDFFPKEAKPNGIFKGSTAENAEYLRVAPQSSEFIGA
Sequence (Q96SW2 whole entry partner): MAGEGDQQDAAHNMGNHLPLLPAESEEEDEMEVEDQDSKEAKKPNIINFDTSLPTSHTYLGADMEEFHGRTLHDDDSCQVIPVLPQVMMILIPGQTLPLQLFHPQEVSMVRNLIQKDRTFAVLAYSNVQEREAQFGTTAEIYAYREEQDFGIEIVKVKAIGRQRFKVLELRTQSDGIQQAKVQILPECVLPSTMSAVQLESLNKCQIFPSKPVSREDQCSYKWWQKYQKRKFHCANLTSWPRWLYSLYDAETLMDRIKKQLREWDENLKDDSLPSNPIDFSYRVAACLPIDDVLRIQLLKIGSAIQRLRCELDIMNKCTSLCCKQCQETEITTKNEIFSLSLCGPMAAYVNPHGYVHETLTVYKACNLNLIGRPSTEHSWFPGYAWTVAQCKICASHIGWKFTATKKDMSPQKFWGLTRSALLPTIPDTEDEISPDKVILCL
Provide the recorded DC50 for the entries that follow.
Mention the unit after the number when you answer.

compound	DC50
COc1cc(N2CCC(N3CCN(CCc4ccc(C5CCC(=O)NC5=O)cc4)CC3)CC2)ccc1Nc1ncc(Cl)c(Nc2cccc3c2N(S(C)(=O)=O)CC3)n1 (centres unmarked) [Example 34]	6.7 nM
COc1cc(N2CCN(CCC3CCN(c4ccc(C5CCC(=O)NC5=O)cc4)CC3)CC2)ccc1Nc1ncc(Cl)c(Nc2cccc3c2N(S(C)(=O)=O)CC3)n1 (centres unmarked) [Example 56]	5.8 nM
COc1cc(N2CCC(N3CCN(CCC4CCN(c5ccc(C6CCC(=O)NC6=O)cc5)CC4)CC3)CC2)ccc1Nc1ncc(Cl)c(Nc2cccc3c2N(S(C)(=O)=O)CC3)n1 (centres unmarked) [Example 35]	8.4 nM
CS(=O)(=O)N1CCc2cccc(Nc3nc(Nc4ccc(N5CCC(N6CCN(CCCC7CN(c8ccc9c(c8)C(=O)N(C8CCC(=O)NC8=O)C9=O)C7)CC6)CC5)c(F)c4)ncc3Cl)c21 (centres unmarked) [Example 78]	4.6 nM

Read the next record carefully.
Lookup: Which DC50 value is on record for COc1cc(N2CCC(N3CCN(C(=O)[C@@H]4CCN(c5ccc6c(c5)C(=O)N(C5CCC(=O)NC5=O)C6=O)C4)CC3)CC2)ccc1Nc1ncc(Cl)c(Nc2cccc3c2N(S(C)(=O)=O)CC3)n1 (some centres unmarked) [Example 88] ?
Found: 2.7 nM
